// data source = patent US11351173B2

Molecular target: glucocerebrosidase (Gcase) (Homo sapiens, UniProt P04062)
Construct: micellar solution containing 10 nM GCase and 100 nM saposin C
Sequence (P04062 40-536): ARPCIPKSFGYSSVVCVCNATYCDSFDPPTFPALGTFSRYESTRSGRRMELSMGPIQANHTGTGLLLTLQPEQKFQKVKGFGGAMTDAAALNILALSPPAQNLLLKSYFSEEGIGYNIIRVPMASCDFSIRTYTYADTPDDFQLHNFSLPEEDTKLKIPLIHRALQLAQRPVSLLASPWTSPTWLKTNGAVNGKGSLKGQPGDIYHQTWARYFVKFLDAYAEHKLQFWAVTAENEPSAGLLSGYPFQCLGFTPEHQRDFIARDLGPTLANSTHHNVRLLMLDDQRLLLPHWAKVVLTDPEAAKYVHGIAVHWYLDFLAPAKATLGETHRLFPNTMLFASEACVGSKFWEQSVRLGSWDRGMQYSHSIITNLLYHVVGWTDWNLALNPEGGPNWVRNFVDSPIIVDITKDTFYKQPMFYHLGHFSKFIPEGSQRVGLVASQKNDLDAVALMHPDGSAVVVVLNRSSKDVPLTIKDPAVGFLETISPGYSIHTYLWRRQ
Experiment: Glucocerebrosidase (Gcase) activation assay, 4-methylumbelliferyl-beta-D-glucopyranoside substrate, fluorescence readout
Assay type: biochemical
Conditions: test compound at 1.0 μM; read-out: Percent Gcase Activation, 1 μM Test Compound
Experimental: The ability of exemplary compounds to activate glucocerebrosidase (Gcase) was measured. A 484 μL aliquot of a 1.0 mg/mL solution of phosphatidylserine (PS) (Sigma P7769) in chloroform was evaporated under a stream of nitrogen for 1 hour. The lipid film was dissolved over 4 minutes of vigorous vortexing in 40 mL of 176 mM K2HPO4/50 mM citric acid (pH 4.7) containing 7.5 μL of triton X-100, resulting in a mixed micellar preparation with a composition of 0.32 mM triton and 0.37 mol % PS. […]
Assay readout: activation at 1 µM

Task item: Consider the molecule shown here: Cc1cc(C)n2ccc(C(=O)NC3CCC(C4CCCO4)CC3)c2n1 (centres unmarked) [III-199] What is its recorded activation at 1 µM?
Reply: 30 to 60%

Task item: Consider the molecule shown here: Cc1cc(C)n2ccc(C(=O)Nc3ccc(N4CCCCC4)cc3)c2n1 [III-17] What is its recorded activation at 1 µM?
Reply: 30 to 60%

Task item: Consider the molecule shown here: Cc1cc(C)n2ccc(C(=O)NCC3CCC4(CCCCO4)CC3)c2n1 (centres unmarked) [III-123] What is its recorded activation at 1 µM?
Reply: > 60%

Task item: Consider the molecule shown here: Cc1cc(C)n2ccc(C(=O)Nc3ccc(-c4ncco4)cc3)c2n1 [III-7] What is its recorded activation at 1 µM?
Reply: > 60%

Task item: Consider the molecule shown here: CCCOCCO[C@H]1CC[C@H](NC(=O)c2ccn3c(C)cc(C)nc23)CC1 [III-197] What is its recorded activation at 1 µM?
Reply: 30 to 60%

Task item: Consider the molecule shown here: Cc1cc(C)n2ccc(C(=O)NC3(C)CCOc4ccc(F)c(F)c43)c2n1 (centres unmarked) [III-173] What is its recorded activation at 1 µM?
Reply: > 60%

Task item: Consider the molecule shown here: Cc1cc(C)n2ccc(C(=O)NC3CCCC34CCCCO4)c2n1 (centres unmarked) [III-138] What is its recorded activation at 1 µM?
Reply: > 60%

Task item: Consider the molecule shown here: Cc1cc(C)n2ccc(C(=O)NC3(C)CCCc4ncncc43)c2n1 (centres unmarked) [III-175] What is its recorded activation at 1 µM?
Reply: < 30%

* * *

assay: Compound solubility in water; settings: water, Compound Solubility in Water
For each entry below, report its solubility value.
Give your result in µg/mL as a bare value.

Task item: Consider the compound shown here: COc1cc(C)n2ccc(C(=O)Nc3ccc(-c4cocn4)cc3)c2n1 What is its recorded solubility?
Reply: 0.1

Task item: Consider the compound shown here: C#Cc1ccc(NC(=O)c2ccn3c(C)cc(C)nc23)cn1 What is its recorded solubility?
Reply: 10.1

Task item: Consider the compound shown here: Cc1cc(C(F)F)n2ccc(C(=O)Nc3ccc(-c4cocn4)cc3)c2n1 What is its recorded solubility?
Reply: 0.3

Task item: Consider the compound shown here: Cc1cc(C)n2ccc(C(=O)N[C@H]3CC[C@H](OC4CCCC4)CC3)c2n1 What is its recorded solubility?
Reply: 5.8

Task item: Consider the compound shown here: Cc1cc(Cl)nc2c(C(=O)NC3c4ccccc4C4CC3C4)ccn12 (stereo not drawn) What is its recorded solubility?
Reply: 0.06

Task item: Consider the compound shown here: [2H]C1(NC(=O)c2ccn3c(C(C)C)cc(COC)nc23)CCOc2cc(F)c(F)cc21 (stereo not drawn) What is its recorded solubility?
Reply: 2.4

Task item: Consider the compound shown here: CCCCCOC1CCC(NC(=O)c2ccn3c(C)cc(C)nc23)CC1 (stereo not drawn) What is its recorded solubility?
Reply: 0.5

Task item: Consider the compound shown here: Cc1cc(C)n2ccc(C(=O)NC3CCc4ccc(-c5cocn5)cc43)c2n1 (stereo not drawn) What is its recorded solubility?
Reply: 0.5

Task item: Consider the compound shown here: CCCCO[C@H]1CC[C@H](NC(=O)c2ccn3c(C4CC4)cc(C)nc23)CC1 What is its recorded solubility?
Reply: 2.3

Task item: Consider the compound shown here: COCCOc1ccc2c(c1)C(NC(=O)c1ccn3c(C)cc(C)nc13)CCC2 (stereo not drawn) What is its recorded solubility?
Reply: 5.8

* * *

target: glucocerebrosidase (Gcase) (Homo sapiens, UniProt P04062); construct: micellar solution containing 10 nM GCase and 100 nM saposin C; test: Glucocerebrosidase (Gcase) activation assay, 4-methylumbelliferyl-beta-D-glucopyranoside substrate, fluorescence readout; format: biochemical; details: test compound at 0.1 μM; read-out: Percent Gcase Activation, 0.1 μM Test Compound
Assay readout: activation at 0.1 µM

Task item: Consider the compound shown here: Cc1ccn2ccc(C(=O)Nc3ccc(-c4ncco4)cc3)c2n1 What is its recorded activation at 0.1 µM?
Reply: < 10%

Task item: Consider the compound shown here: Cc1cc(C)n2ccc(C(=O)NC3CCOc4ccc(F)c(F)c43)c2n1 (stereo not drawn) What is its recorded activation at 0.1 µM?
Reply: > 20%

Task item: Consider the compound shown here: CO[C@H]1CC[C@@H](C(C)(C)NC(=O)c2ccn3c(C)cc(C)nc23)CC1 What is its recorded activation at 0.1 µM?
Reply: 10 to 20%

Task item: Consider the compound shown here: COc1cc(C)nc2c(C(=O)Nc3ccc(-c4cocn4)cc3)ccn12 What is its recorded activation at 0.1 µM?
Reply: 10 to 20%

Task item: Consider the compound shown here: Cc1ccnc2c(C(=O)Nc3ccc(-c4ncco4)cc3)ccn12 What is its recorded activation at 0.1 µM?
Reply: < 10%

Task item: Consider the compound shown here: CCC(F)(F)CN1CCC(NC(=O)c2ccn3c(C)cc(C)nc23)C1 (stereo not drawn) What is its recorded activation at 0.1 µM?
Reply: < 10%

Task item: Consider the compound shown here: Cc1cc(C)n2ccc(C(=O)Nc3ccc(-n4ccnc4)cc3)c2n1 What is its recorded activation at 0.1 µM?
Reply: < 10%

Task item: Consider the compound shown here: Cc1cc(C)n2ccc(C(=O)Nc3ccc(-c4cccs4)cn3)c2n1 What is its recorded activation at 0.1 µM?
Reply: > 20%

Task item: Consider the compound shown here: O=C(N[C@H]1CCCc2ccccc21)c1ccn2c(C3CC3)ccnc12 What is its recorded activation at 0.1 µM?
Reply: < 10%

Task item: Consider the compound shown here: C#Cc1ccc(NC(=O)c2ccn3c(C)cc(C)nc23)cn1 What is its recorded activation at 0.1 µM?
Reply: < 10%

Task item: Consider the compound shown here: C#Cc1ccc(NC(=O)c2ccn3c(C)cc(C)nc23)c(CO)c1 What is its recorded activation at 0.1 µM?
Reply: < 10%

Task item: Consider the compound shown here: COCCOc1ccc2c(c1)C(NC(=O)c1ccn3c(C)cc(C)nc13)CCC2 (stereo not drawn) What is its recorded activation at 0.1 µM?
Reply: 10 to 20%

Task item: Consider the compound shown here: Cc1cc(C)n2ccc(C(=O)NC3(C)CCOc4ccccc43)c2n1 (stereo not drawn) What is its recorded activation at 0.1 µM?
Reply: > 20%

Task item: Consider the compound shown here: Cc1cc(C)n2ccc(C(=O)NC3CC4CCC(C3)N4CC(F)(F)F)c2n1 (stereo not drawn) What is its recorded activation at 0.1 µM?
Reply: < 10%

Task item: Consider the compound shown here: CCCCO[C@H]1CC2CCC(C1)[C@H]2NC(=O)c1ccn2c(C)cc(C)nc12 What is its recorded activation at 0.1 µM?
Reply: > 20%

Task item: Consider the compound shown here: Cc1cc(C)n2ccc(C(=O)NC3CCCc4ccc(S(C)(=O)=O)cc43)c2n1 (stereo not drawn) What is its recorded activation at 0.1 µM?
Reply: < 10%

Task item: Consider the compound shown here: Cc1cc(C)n2ccc(C(=O)NC3CC4CCC(C3)O4)c2n1 (stereo not drawn) What is its recorded activation at 0.1 µM?
Reply: < 10%

Task item: Consider the compound shown here: Cc1cc(C)n2ccc(C(=O)N[C@H]3CC[C@H](OC4CCC4)CC3)c2n1 What is its recorded activation at 0.1 µM?
Reply: > 20%

Task item: Consider the compound shown here: Cc1cc(C)n2ccc(C(=O)NC(C)(C)c3ccccc3Cl)c2n1 What is its recorded activation at 0.1 µM?
Reply: 10 to 20%

Task item: Consider the compound shown here: Cc1cc(C)n2ccc(C(=O)NC3CCc4nc(C)oc4C3)c2n1 (stereo not drawn) What is its recorded activation at 0.1 µM?
Reply: < 10%

Task item: Consider the compound shown here: Cc1cc(C)n2ccc(C(=O)NC3CCC4(CCCCO4)C3)c2n1 (stereo not drawn) What is its recorded activation at 0.1 µM?
Reply: 10 to 20%
